Biological target: murine Nurr1 receptor (Mus musculus, UniProt Q06219)
Construct: a cell line (N2A) endogenously expressing the murine Nurr1 receptor
Sequence (Q06219 whole entry): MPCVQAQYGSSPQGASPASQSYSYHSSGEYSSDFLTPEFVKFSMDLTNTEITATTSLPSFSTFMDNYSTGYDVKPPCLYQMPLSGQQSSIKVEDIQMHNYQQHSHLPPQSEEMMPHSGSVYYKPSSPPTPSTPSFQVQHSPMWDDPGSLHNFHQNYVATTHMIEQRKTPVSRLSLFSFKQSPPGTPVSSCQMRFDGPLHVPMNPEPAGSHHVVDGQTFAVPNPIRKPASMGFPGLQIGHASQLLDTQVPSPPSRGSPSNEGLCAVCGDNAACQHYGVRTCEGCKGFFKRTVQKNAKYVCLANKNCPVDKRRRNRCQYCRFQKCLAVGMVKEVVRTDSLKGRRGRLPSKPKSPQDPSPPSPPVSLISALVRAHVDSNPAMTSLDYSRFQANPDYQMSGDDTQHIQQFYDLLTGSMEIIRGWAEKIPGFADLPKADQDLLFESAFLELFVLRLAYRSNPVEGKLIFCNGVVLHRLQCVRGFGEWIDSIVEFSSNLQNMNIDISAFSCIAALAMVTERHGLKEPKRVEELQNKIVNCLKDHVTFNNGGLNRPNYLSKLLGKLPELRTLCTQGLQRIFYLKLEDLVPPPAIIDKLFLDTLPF
Test: In vitro activity on N2A cells (8NBRE-luciferase reporter)
Conditions: N2A cell line endogenously expressing Nurr1, stably transfected with NBRE-luciferase; 24 hours incubation
pEC50: −log10 of the molar value.
endpoint: pEC50

> print(dat)
                                   molecule  endpoint  readout.value
1  O=C(c1cn2cc(Cl)ccc2n1)c1cccs1 [Example 4]     pEC50           8.33
